# targetOrTestSystem: human CXCR3 (N-delta 4) (Homo sapiens)
# Construct: CD8 leader; Flag tag; expressed in transfected cells; membranes used
# Sequence (P49682 5-368 limits assumed): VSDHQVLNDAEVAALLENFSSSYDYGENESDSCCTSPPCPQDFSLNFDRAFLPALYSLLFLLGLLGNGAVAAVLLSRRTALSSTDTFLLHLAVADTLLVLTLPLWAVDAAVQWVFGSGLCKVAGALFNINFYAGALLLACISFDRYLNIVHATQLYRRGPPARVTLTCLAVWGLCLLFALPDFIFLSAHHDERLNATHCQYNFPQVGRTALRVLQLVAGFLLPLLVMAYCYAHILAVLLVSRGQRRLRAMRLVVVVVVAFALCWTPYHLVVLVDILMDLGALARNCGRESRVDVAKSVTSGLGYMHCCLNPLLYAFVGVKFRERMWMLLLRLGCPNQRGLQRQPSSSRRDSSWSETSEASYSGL
# assayProtocol: Human CXCR3 (N-delta 4) scintillation proximity assay (SPA), [125I] IP-10 binding
# runParameters: IC50 rating; Ba/F3-hCXCR3 (N-delta 4) membranes, 25 pM [125I] IP-10
# Excerpt: The inventive compounds can readily be evaluated to determine activity at the CXCR3 receptors by known methods, such as, for example, development of a human CXCR3 (N-delta 4) Binding Assay. Cloning and expression of human CXCR3 (N-delta 4): The DNA encoding human CXCR3 was cloned by PCR using human genomic DNA (Promega, Madison, Wis.) as a template. […]
pIC50: −log10 of the molar value.
Form field: pIC50 (one value per entry).
measuredEndpoint: pIC50

O=C(NCc1ccc(Cl)c(Cl)c1)c1cnc(N2CCN(C3CCN(Cc4ccc(Cl)c(F)c4)CC3)CC2)c(Cl)c1 [compound 115]    7.00 to 7.60
N#Cc1ccc(CN2CCC(N3CCN(c4ncc(C(=O)NCc5ccc(Cl)cc5)cc4Cl)CC3)CC2)cc1 [compound 126]    7.00 to 7.60
CNC(=O)c1cnc(N2CCN(C3CCN(Cc4ccc(Cl)cc4Cl)CC3)[C@@H](C)C2)c(Cl)c1 [compound 255]    > 7.60
O=C(NCc1ccc(F)cc1F)c1cnc(N2CCN(C3CCN(Cc4ccc(F)cc4)CC3)CC2)c(Cl)c1 [compound 58]    < 7.00
C[C@H]1CN(c2ncc(C(=O)NCc3ccc(F)c(F)c3)cc2Cl)CCN1C1CCN(C(=O)c2ccc(C#N)cc2)CC1 [compound 291]    7.00 to 7.60
N#Cc1ccc(CN2CCC(N3CCN(c4ncc(C(=O)NCc5ccc(F)c(F)c5)cc4Br)CC3)CC2)cc1 [compound 277]    7.00 to 7.60
N#Cc1ccc(CN2CCC(N3CCN(c4ncc(C(=O)NCc5ccc(C(F)(F)F)cc5)cc4Cl)CC3)CC2)cc1 [compound 336]    < 7.00
O=C(NCc1ccc(F)c(Cl)c1)c1cnc(N2CCN(C3CCN(Cc4ccc(Cl)cc4)CC3)CC2)c(Cl)c1 [compound 150]    7.00 to 7.60
N#Cc1ccc(C(=O)N2CCC(N3CCN(c4ncc(C(=O)NCc5ccc(Cl)cc5)cc4Cl)CC3)CC2)cc1 [compound 101]    7.00 to 7.60
CCNC(=O)c1cnc(N2CCN(C3CCN([C@@H](C)c4ccc(Cl)cc4)CC3)[C@@H](C)C2)c(Cl)c1 [compound 294]    7.00 to 7.60
CCNC(=O)c1cnc(N2CCN(C3CCN(C(=O)c4ccc(-n5cccc5)cc4)CC3)[C@@H](CC)C2)c(Cl)c1 [compound 262]    > 7.60
COc1ccc(CN2CCC(N3CCN(c4ncc(C(=O)NCc5cccc(F)c5)cc4Cl)CC3)CC2)cc1 [compound 30]    < 7.00
O=C(NCc1ccc(Br)cc1)c1cnc(N2CCN(C3CCN(Cc4ccc(Cl)c(F)c4)CC3)CC2)c(Cl)c1 [compound 293]    7.00 to 7.60
O=C(NCc1ccc(F)c(F)c1)c1cnc(N2CCN(C3CCN(Cc4ccc(Cl)cc4Cl)CC3)CC2)c(Cl)c1 [compound 25]    < 7.00
